Origin of values: patent EP0515684A1

Tested on: rabbit LDL
Experiment: Amount of thiobarbituric acid reactive substances (TBARS) formed on Cu2+ oxidation of LDL
Assay type: biochemical
Conditions: Compound conc. 10^-5 M; 5 µM of Cu²⁺ added to rabbit LDL, followed by heating; 10 µM
Kindly note that classification relies on Formed TBARS (%) with these boundaries: low bin: < 10%; mid bin: ≥ 10% and < 30%; high bin: ≥ 30%

compound	group_label
COc1cc(NCc2ccc(Oc3ccccc3)cc2)cc(OC)c1OC [Compound 52]	mid bin

Class? Entry: COc1cc(NCc2c(F)c(F)c(F)c(F)c2F)cc(OC)c1OC [Compound 29]
mid bin

Class? Entry: COc1cc(NCc2cccc(Br)c2)cc(OC)c1OC [Compound 27]
mid bin

Class? Entry: CCCCCCCCCCCCOc1ccc(CNc2cc(OC)c(OC)c(OC)c2)cc1OCCCCCCCCCCCC [Compound 43]
high bin

Class? Entry: COc1cc(NCc2ccco2)cc(OC)c1OC [Compound 95]
mid bin

Class? Entry: COc1cc(NC(C)C2CCCCC2)cc(OC)c1OC (centres unmarked) [Compound 105]
low bin

Class? Entry: CCCCCCC(Nc1cc(OC)c(OC)c(OC)c1)c1ccccc1 (centres unmarked) [Compound 78]
mid bin

Class? Entry: COc1cc(NC2CCCc3ccccc32)cc(OC)c1OC (centres unmarked) [Compound 90]
low bin

Class? Entry: COc1cc(N(CCCc2ccccc2)Cc2c(F)c(F)c(F)c(F)c2F)cc(OC)c1OC [Compound 30]
mid bin

Class? Entry: COc1cc(NCc2cccc(Oc3ccccc3)c2)cc(OC)c1OC [Compound 51]
mid bin

Class? Entry: CCN(Cc1ccccc1)c1cc(OC)c(OC)c(OC)c1 [Compound 3, N-benzyl-N-ethyl-3,4,5-trimethoxyaniline]
high bin

----------
Test system: rabbit or human LDL
Experiment: Electrophoretic mobility in agarose gel of LDL oxidised with Cu2+
Type: biochemical
Conditions: Compound conc. 10 x 10⁻⁶ M; 10 µM of Cu²⁺, 37°C approximately 24 hours; expressed by regarding the mobility of LDL as 1.00 (Control 1.61)
observation_type: Mobility
Answer field: number only, no words.

# returns recorded Mobility (system: rabbit or human LDL) for CC(C)=CCC/C(C)=C/CCC(C)Nc1ccc(-c2cc(C(C)(C)C)c(O)c(C(C)(C)C)c2)cc1 (stereo not shown) [Compound 188]
1.15

----------
System: rabbit LDL
Experiment: Amount of thiobarbituric acid reactive substances (TBARS) formed on Cu2+ oxidation of LDL
Type: biochemical
Conditions: Compound conc. 10^-5 M; 5 µM of Cu²⁺ added to rabbit LDL, followed by heating; 10 µM
Kindly note that classification relies on Formed TBARS (%) with these boundaries: lo (below 20%), med (20% to below 30%), hi (30% or more)

Examples with answers:
compound	group_label
COc1cc(NCc2cccs2)cc(OC)c1OC [Compound 97]	med
COc1cc(N(CC=C(C)CCCC(C)CCCC(C)CCCC(C)C)Cc2ccccc2)cc(OC)c1OC (stereo not drawn) [Compound 9]	hi
COc1cc(NCc2ccc[nH]2)cc(OC)c1OC [Compound 94]	hi
COc1cc(NCc2ccccc2Br)cc(OC)c1OC [Compound 28]	lo
COc1cc(NC(c2ccccc2)c2ccccc2)cc(OC)c1OC [Compound 82]	lo
COc1cc(N(CC=Cc2ccccc2)CC=Cc2ccccc2)cc(OC)c1OC [Compound 86]	med
COc1cc(N(CC=C(C)CCC=C(C)C)Cc2ccccc2)cc(OC)c1OC [Compound 8]	hi

Continue with the compound presented below.
Class? Entry: COc1cc(NCc2ccc(OC/C=C(\C)CCC=C(C)C)cc2)cc(OC)c1OC [Compound 47]
lo
